The reported measurements were obtained from patent US20210284747A1.

Give measured IC50, inhibition of IL-8 secretion, HT-29 + EL4-NC-LIGHT cells for each item. Keep answers brief.
Molecular target: LIGHT without residues 81-84, stably expressed on EL4 cells (EL4-NC-LIGHT)
Assay: cell-based or functional assay
Answers without a unit are incomplete; give the number and then its unit.

Exam item: Endpoint output: IC50, inhibition of IL-8 secretion, HT-29 + EL4-NC-LIGHT cells of 3D12_var7 (antibody, V domains shown) VH: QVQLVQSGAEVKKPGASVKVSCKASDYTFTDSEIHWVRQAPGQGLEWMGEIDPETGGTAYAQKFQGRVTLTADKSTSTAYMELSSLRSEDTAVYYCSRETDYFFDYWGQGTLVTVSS VL: DIQMTQSPSSLSASVGDRVTITCGASENIYGALNWYQRKQGKAPKLLIYGATNLADGVPSRFSGSGSGRDYTLTISSLQPEDVATYYCQNVLSTPWTFGQGTKLEIKR . Value?
Marked response: 0.54 nM

Exam item: Input 3B04_var4 (antibody, V domains shown) VH: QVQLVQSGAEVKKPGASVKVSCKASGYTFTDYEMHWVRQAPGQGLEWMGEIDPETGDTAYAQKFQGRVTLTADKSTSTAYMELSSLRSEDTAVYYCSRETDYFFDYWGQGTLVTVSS VL: DIQMTQSPSSLSASVGDRVTITCGASENIYGALNWYQRKQGKAPQLLIYGATNLADGVSSRFSGSGSGRDYTLTISSLQPEDFATYYCQNVLTTPWTFGQGTKLEIKR
Marked response: 0.04 nM

Exam item: Input 3B04_var1 (antibody, V domains shown) VH: QVQLVQSGAEVKKPGASVKVSCKASGYTFTDYEMHWVRQAPGQGLEWIGEIDPETGDTAYSQKFKGRATLTADKSTSTAYMEFSSLRSEDTAVYYCSRETDYFFDYWGQGTLVTVSS VL: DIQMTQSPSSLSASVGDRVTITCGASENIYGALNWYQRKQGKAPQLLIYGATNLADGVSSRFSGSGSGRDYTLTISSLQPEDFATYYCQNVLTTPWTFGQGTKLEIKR
Marked response: 0.05 nM
